test: chemical genetic growth profiling, strain panel (AID 1159580);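 note: tested at 20 µM; growth read once vehicle control cultures reached saturation at 30 °C; 1 = growth at the plate median or of vehicle wells; lower values mean less growth of the strain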; settings: S. cerevisiae deletion strains, growth OD, locus YBL105C, strain PKC1, hits give low values
About 2,000 (36%) of roughly 5,500 compounds were called active. Roughly 18% stayed inconclusive and do not appear here. The list shows a part of the results.
measureName: normalized growth
The response must contain the number and no unit.

Worked cases, normalized growth given:
Given item O=C(NCc1cccs1)c1csc(Cc2c(Cl)cccc2Cl)n1 , the value recorded as its normalized growth is 0.969

Given item O=C1Nc2ccccc2/C1=N/N=C\c1ccccc1Cl , the value recorded as its normalized growth is 0.967

Given item CC(C)CSc1nnc(CSCc2nc(-c3ccc(Cl)cc3)cs2)n1C , the value recorded as its normalized growth is 0.964

Given item Fc1ccc(N/N=C\Cc2nnnn2-c2ccccc2)c(F)c1 , the value recorded as its normalized growth is 0.951

Given item CC(O)(CNCc1ccc(Cl)cc1)CSc1ccccc1Cl (stereo unspecified) , the value recorded as its normalized growth is 0.984

New cases:
Given item Cc1cc(C(=O)O/N=C(/N)CSc2ncccc2C(F)(F)F)no1 , the value recorded as its normalized growth is 0.993

---

assay: chemical genetic growth profiling, strain panel (AID 1159580); conditions: S. cerevisiae deletion strains, growth OD, locus YOR136W, strain idh2, hits give low values
Hit rate of the full screen: of about 5,500 compounds, about 2,000 (36%) were called active. About 18% were inconclusive and are not listed. This is one part of the list.
measureName: normalized growth
The response must contain the number and no unit.

Given item CC1=CCc2c(cc3oc(C)cc(=O)c3c2O)OC1 , the value recorded as its normalized growth is 0.963

Given item CC1(C)O[C@@H]2CC3C4C[C@H](F)C5=CC(=O)C=C[C@]5(C)[C@@]4(F)[C@@H](O)C[C@]3(C)[C@]2(C(=O)CO)O1 (some centres not stated) , the value recorded as its normalized growth is 1.01

Given item CC1=NCCc2c1[nH]c1cc(O)ccc21 , the value recorded as its normalized growth is 0.985

Given item Cc1coc2ccccc2c1=O , the value recorded as its normalized growth is 1.02

New cases:
Given item CC(=O)CC(c1ccccc1)c1c(O)c2ccccc2oc1=O (configuration not stated) , the value recorded as its normalized growth is 1.03

Given item CCC(CCC(C)[C@H]1CCC2C3CC=C4C[C@@H](O)CC[C@]4(C)C3CC[C@@]21C)C(C)C (some centres not stated) , the value recorded as its normalized growth is 0.971

Given item COC(=O)C[C@H]1C(C)(C)C(=O)[C@@H]2CC3=C4CC(OC)O[C@@H](c5ccoc5)[C@]4(C)CCC3[C@@]1(C)C2=O (some centres not stated) , the value recorded as its normalized growth is 0.999

Given item COC(=O)C1=C(C)NC(C)=C(C(=O)OC)C1c1ccccc1[N+](=O)[O-] , the value recorded as its normalized growth is 0.965

Given item COc1cc2c3cc1Oc1cc(ccc1O)C[C@@H]1c4c(cc(OC)c(O)c4Oc4ccc(cc4)C[C@@H]3N(C)CC2)CC[N+]1(C)C , the value recorded as its normalized growth is 1

Given item O=c1[nH]c2cc(Cl)c(Cl)cc2[nH]c1=O , the value recorded as its normalized growth is 1.04

---

assay: chemical genetic growth profiling, strain panel (AID 1159580); settings: S. cerevisiae deletion strains, growth OD, locus YOR290C, strain snf2, hits give low values
The campaign covered roughly 5,500 compounds. About 2,000 (36%) were called active. Another 18% or so got no clear call; they are omitted. The list shows a part of the results.
Below is a list of entries, each paired with its recorded normalized growth value.
The response must contain the number and no unit.

Given item NS(=O)(=O)c1cc2c(cc1C(F)(F)F)NCNS2(=O)=O , the value recorded as its normalized growth is 0.935

Given item CC(=O)CC(c1ccccc1)c1c(O)c2ccccc2oc1=O (configuration not stated) , the value recorded as its normalized growth is 1.01

Given item O=c1c2ccccc2oc2ccccc12 , the value recorded as its normalized growth is 0.792

Given item CC(C)(O)[C@@H]1CC[C@](C)([C@H]2[C@@H](O)C[C@@]3(C)C4C[C@H](O[C@@H]5O[C@H](CO)[C@@H](O)[C@H](O)[C@H]5O)C5C(C)(C)[C@@H](O[C@@H]6OC[C@@H](O)[C@H](O)[C@H]6O)CC[C@@]56C[C@@]46CC[C@]23C)O1 (some centres not stated) , the value recorded as its normalized growth is 1.01

Given item CN(N=O)C(=O)N[C@@H]1[C@@H](O)[C@H](O)[C@@H](CO)O[C@@H]1O , the value recorded as its normalized growth is 1

Given item O=c1oc2ccccc2c(O)c1Cc1c(O)c2ccccc2oc1=O , the value recorded as its normalized growth is 1.01

Now look at this one.
Given item C[C@@H]1CC[C@@]2(OC1)OC1C(O)C3C4CC[C@H]5C[C@H](O[C@@H]6O[C@H](CO)[C@H](O[C@@H]7O[C@H](CO)[C@@H](O)[C@H](O[C@@H]8OC[C@@H](O)[C@H](O)[C@H]8O)[C@H]7O[C@@H]7O[C@H](CO)[C@H](O)[C@H](O[C@@H]8O[C@H](CO)[C@@H](O)[C@H](O)[C@H]8O)[C@H]7O)[C@H](O)[C@H]6O)[C@H](O)C[C@]5(C)C4CC[C@]3(C)C1[C@@H]2C (some centres not stated) , the value recorded as its normalized growth is 0.964

---

assay: chemical genetic growth profiling, strain panel (AID 1159580); details: S. cerevisiae deletion strains, growth OD, locus YML124C, strain tub3, hits give low values
Out of some 5,500 compounds screened, about 2,000 (36%) were called active. Another 18% or so got no clear call; they are omitted. This is one part of the list.
Below is a list of entries, each paired with its recorded normalized growth value.

Given item CC(=O)Nc1ccc(O)cc1 , the value recorded as its normalized growth is 0.972 (inactive)

Given item CC(=O)N(O)CCCCCNC(=O)CCC(=O)N(O)CCCCCNC(=O)CCC(=O)N(O)CCCCCN , the value recorded as its normalized growth is 1.03 (inactive)

Now look at this one.
Given item O=C(O)/C=C(\CC(=O)O)C(=O)O , the value recorded as its normalized growth is 0.97 (inactive)

---

experiment: chemical genetic growth profiling, strain panel (AID 1159580);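 note: tested at 20 µM; growth read once vehicle control cultures reached saturation at 30 °C; 1 = growth at the plate median or of vehicle wells; lower values mean less growth of the strain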; conditions: S. cerevisiae deletion strains, growth OD, locus YJR043C, strain POL32, hits give low values
Hit rate of the full screen: of about 5,500 compounds, about 2,000 (36%) were called active. Roughly 18% stayed inconclusive and do not appear here. The list shows a part of the results.
Criterion: normalized growth strictly less than 1. Met: true. Not met: false.

Req: Please let me know if CC(C)Oc1ccc2c(=O)cc(-c3ccccc3)oc2c1 shows normalized growth below 1.
Resp: true

Req: Please let me know if COc1ccc(-c2cc(=O)c3ccccc3o2)cc1 shows normalized growth below 1.
Resp: true

Req: Please let me know if COc1c(O)cccc1O shows normalized growth below 1.
Resp: false

Req: Please let me know if COc1cc2cc[n+]3cc4c(OC)c(OC)ccc4cc3c2cc1OC shows normalized growth below 1.
Resp: true

Req: Please let me know if COc1c(O)cc2c(-c3ccccc3)cc(=O)oc2c1OC shows normalized growth below 1.
Resp: false

Req: Please let me know if CC(=O)C1COc2ccc(C)cc2C1=O (configuration not stated) shows normalized growth below 1.
Resp: true

Continue with the molecule presented below.
Req: Please let me know if CN(C)CCC=C1c2ccccc2C=Cc2ccccc21 shows normalized growth below 1.
Resp: false

---

Below is a list of entries, each paired with its recorded normalized growth value.
assay: chemical genetic growth profiling, strain panel (AID 1159580);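 note: tested at 20 µM; growth read once vehicle control cultures reached saturation at 30 °C; 1 = growth at the plate median or of vehicle wells; lower values mean less growth of the strain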; conditions: S. cerevisiae deletion strains, growth OD, locus YDL040C, strain nat1, hits give low values
Screen size: about 5,500 compounds; about 2,000 (36%) were called active. Not shown: some 18% with an inconclusive outcome. The list shows a part of the results.
The response must contain the number and no unit.

Worked cases, normalized growth given:
Given item CCn1cc(C(=O)O)c(=O)c2cc(F)c(N3CCNCC3)cc21 , the value recorded as its normalized growth is 0.99

Given item NS(=O)(=O)c1cc2c(cc1C(F)(F)F)NCNS2(=O)=O , the value recorded as its normalized growth is 0.996

Given item COc1cc2c3cc1Oc1cc(ccc1O)C[C@@H]1c4c(cc(OC)c(O)c4Oc4ccc(cc4)C[C@@H]3N(C)CC2)CC[N+]1(C)C , the value recorded as its normalized growth is 1.01

Given item O=c1c2ccccc2[se]n1-c1ccccc1 , the value recorded as its normalized growth is 0.909

New cases:
Given item C[N+]1(CCCCC[N+]2(C)CCCC2)CCCC1 , the value recorded as its normalized growth is 0.989

---

Below is a list of entries, each paired with its recorded normalized growth value.
experiment: chemical genetic growth profiling, strain panel (AID 1159580);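 note: tested at 20 µM; growth read once vehicle control cultures reached saturation at 30 °C; 1 = growth at the plate median or of vehicle wells; lower values mean less growth of the strain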; details: S. cerevisiae deletion strains, growth OD, locus YHR079C, strain IRE1, hits give low values
Hit rate of the full screen: of about 5,500 compounds, about 2,000 (36%) were called active. Roughly 18% stayed inconclusive and do not appear here. This is one part of the list.
The response must contain the number and no unit.

Worked cases, normalized growth given:
Given item O=C1CCc2cc(OCCCCc3nnnn3C3CCCCC3)ccc2N1 , the value recorded as its normalized growth is 0.986

Given item O=C1CN2Cc3c(ccc(Cl)c3Cl)N=C2N1 , the value recorded as its normalized growth is 0.996

Given item O=C1CCc2ccc(OCCCCN3CCN(c4cccc(Cl)c4Cl)CC3)cc2N1 , the value recorded as its normalized growth is 0.961

Given item CC(C)c1ccc2c(c1O)CC[C@H]1C3=C(CC[C@]21C)C(=O)OC3 , the value recorded as its normalized growth is 0.927

Now look at this one.
Given item CC[C@]12C=CCN3CC[C@@]4(c5ccc(OC)cc5N(C)C4[C@@](O)(C(=O)OC)[C@@H]1OC(C)=O)[C@@H]32 (stereo not given in full) , the value recorded as its normalized growth is 0.924

Recorded values, source PubChem BioAssay AID1159580.
